// provenance: patent US5028629A

# SYSTEM_TESTED: 5-lipoxygenase (Cavia porcellus, UniProt A0A286X958)
# Construct: 0.2 ml of the supernatant obtained from the PMNL sonicate; endogenous in cells; host or cells: casein-elicited guinea pig peritoneal polymorphonuclear leukocytes (PMNL), sonicate, 30,000 x g supernatant
# Sequence (A0A286X958 1-674): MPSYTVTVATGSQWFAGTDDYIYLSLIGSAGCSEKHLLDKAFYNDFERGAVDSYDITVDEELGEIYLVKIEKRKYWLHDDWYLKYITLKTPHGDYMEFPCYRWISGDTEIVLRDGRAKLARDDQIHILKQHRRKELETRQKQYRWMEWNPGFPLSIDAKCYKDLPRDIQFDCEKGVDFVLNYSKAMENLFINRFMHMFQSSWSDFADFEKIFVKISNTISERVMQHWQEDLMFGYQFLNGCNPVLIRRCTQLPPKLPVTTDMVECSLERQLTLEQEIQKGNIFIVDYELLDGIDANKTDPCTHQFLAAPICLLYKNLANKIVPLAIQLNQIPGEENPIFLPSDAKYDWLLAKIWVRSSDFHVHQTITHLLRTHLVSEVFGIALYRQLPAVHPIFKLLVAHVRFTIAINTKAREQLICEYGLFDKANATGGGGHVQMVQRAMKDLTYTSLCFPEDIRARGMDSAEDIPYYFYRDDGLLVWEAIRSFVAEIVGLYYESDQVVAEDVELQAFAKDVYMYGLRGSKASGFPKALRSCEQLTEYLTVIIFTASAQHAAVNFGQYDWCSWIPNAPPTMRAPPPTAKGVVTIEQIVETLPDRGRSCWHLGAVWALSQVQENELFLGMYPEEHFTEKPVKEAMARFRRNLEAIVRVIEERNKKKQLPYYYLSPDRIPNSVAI
# ASSAY_METHOD_TEXT: 5-Lipoxygenase (5-LO) Assay: 5-HETE formation in supernatant of guinea pig PMNL sonicate
# Type: biochemical
# CONDITION_CONTEXT: second table (Table III); known hydroxamic acid derivatives as comparison; read-out: 5-Lo (IC50)
# Method: Ten milliliters of a 2% casein solution is injected intraperitoneally to guinea pigs weighing 250-300 gm. After 16-18 hours, the guinea pigs are killed by suffocation in a carbon dioxide chamber. […] Enzyme activity is determined by assaying for 5-hydroxy-6,8,11,14-eicosatetraenoic acid (5-HETE) formation by first incubating 0.2 ml of the supernatant obtained from the PMNL sonicate with the test compound, 1 mM CaCl2, 2 mM ATP, and 1 mM GSH for 5 minutes at 37° C. […]
pIC50: −log10 of the molar value.
RESULT_TYPE: pIC50

{"COMPOUND": "CCc1ccc(CCCc2ccccc2)cc1C(=O)N(C)O [reference compound]", "pIC50": 6.26}
{"COMPOUND": "CCCCOc1ccccc1C=CC(=O)N(C)O [reference compound]", "pIC50": 7.39}
{"COMPOUND": "CSc1ccccc1C(=O)N(C)O [reference compound]", "pIC50": 4.36}

A = CCCCSc1ccc(CCCc2ccccc2)cc1C(=O)N(C)O [reference compound]
B = CN(O)C(=O)C=Cc1ccccc1OCc1ccccc1 [reference compound]
Asked: Hi! Which is lower in terms of pIC50, the first one A or the second one B ? Return value: the label identifying the chosen record.
Given back: A

P = CSc1ccc(CCCc2ccccc2)cc1C(=O)N(C)O [reference compound]
Q = COc1ccccc1C=CC(=O)N(C)O [reference compound]
Asked: // pick larger pIC50 from pair: P vs Q Let me know the label of the one you choose.
Given back: P
(P: 6.23, Q: 5.92)

###

# SYSTEM_TESTED: 5-lipoxygenase (Cavia porcellus, UniProt A0A286X958)
# Construct: 0.2 ml of the supernatant obtained from the PMNL sonicate; endogenous in cells; host or cells: casein-elicited guinea pig peritoneal polymorphonuclear leukocytes (PMNL), sonicate, 30,000 x g supernatant
# ASSAY_METHOD_TEXT: 5-Lipoxygenase (5-LO) Assay: 5-HETE formation in supernatant of guinea pig PMNL sonicate
# Type: biochemical
# CONDITION_CONTEXT: Table II; guinea pig PMNL sonicate supernatant, 14C-arachidonic acid, 37° C.; read-out: 5-LO (concentration in which formation of 5-HETE is inhibited by 50%, IC50)
RESULT_TYPE: IC50 (nM)

a = CCCCc1cc(SC)ccc1C=CC(=O)N(C)O
b = CCCCCCc1ccc(SC)c(C=CC(=O)N(C)O)c1
c = CCCCCCc1ccc(S(C)(=O)=O)c(C=CC(=O)N(C)O)c1
d = CN(O)C(=O)C=Cc1ccccc1SCCc1ccccc1
e = CCCCS(=O)(=O)c1ccccc1C=CC(=O)N(C)O
Asked: # sort list by recorded IC50, greatest to least // ordering of labels required in reply
Given back: e, c, b, a, d
(e: 1100 nM, c: 90 nM, b: 58 nM, a: 23 nM, d: 14 nM)
